These data points were gathered from patent US4652575A.

target.entity: histamine H2 receptors (Cavia porcellus)
Construct: tests on insulated atrium auricolas of Guinea pig heart; from tissue; host or cells: isolated guinea pig heart atrium
assay.explanation: Antagonistic activity to the histamine H2 receptors "in vitro" on insulated atrium auricolas of Guinea pig heart
details: guinea pig, 0.5 h, compound 1·10^-6 M/L; histamine 5·10^-6 M/L; read-out: Antagonizing activity to histamine H2 receptors
Here, each record is paired with measured inhibition at 1 µM data.
Entry rule: numbers only, all in %.

1) CN(C)Cc1ccc(CSCCNC(=S)NC(=O)c2ccccc2)o1: 60

Asked: Quick one: give measured inhibition at 1 µM for CN(C)Cc1ccc(CSCCNc2nc(-c3ccc4ccccc4c3)cs2)o1
Given back: 70

Asked: Output measured inhibition at 1 µM for this item: CN(C)Cc1ccc(CSCCNc2nc(-c3ccc(Oc4ccccc4)cc3)cs2)o1
Given back: 65

Asked: Hello, please tell me recorded inhibition at 1 µM for this one: CN/C(=N/CCSCc1nc[nH]c1C)NC#N [Cimetidine, reference compound]
Given back: 40

Asked: Identify the reported inhibition at 1 µM for the following entry. CN(C)Cc1ccc(CSCCNc2nc(C=Cc3ccccc3)cs2)o1
Given back: 60

Asked: Provide only the value of recorded inhibition at 1 µM for CN(C)Cc1ccc(CSCCNc2nc(-c3ccccc3)cs2)o1
Given back: 70

Asked: Fill in reported inhibition at 1 µM for this entry: CN(C)Cc1ccc(CSCCNc2nc(-c3ccc(-c4ccccc4)cc3)cs2)o1
Given back: 60

====

target.entity: histamine H2 receptors (Cavia porcellus)
Construct: tests on insulated atrium auricolas of Guinea pig heart; from tissue; host or cells: isolated guinea pig heart atrium
assay.explanation: Antagonistic activity to the histamine H2 receptors "in vitro" on insulated atrium auricolas of Guinea pig heart
details: guinea pig, 0.5 h, compound 1·10^-7 M/L; histamine 2,5·10^-7 M/L; read-out: Antagonizing activity to histamine H2 receptors
reported.endpoint: inhibition at 0.1 µM (%)
The response must be a number in % with no trailing unit.

1. CN/C(=N/CCSCc1nc[nH]c1C)NC#N [Cimetidine, reference compound]: 80

Asked: Entry CN(C)Cc1ccc(CSCCNc2nc(-c3ccc(-c4ccccc4)cc3)cs2)o1 needs its inhibition at 0.1 µM filled in; supply it.
Given back: 95

Asked: For the compound CN(C)Cc1ccc(CSCCNc2nc(-c3ccc(Oc4ccccc4)cc3)cs2)o1 , report inhibition at 0.1 µM.
Given back: 90

Asked: Let me know recorded inhibition at 0.1 µM for CN(C)Cc1ccc(CSCCNC(=S)NC(=O)c2ccccc2)o1 , thanks.
Given back: 90

Asked: Read the entry CN(C)Cc1ccc(CSCCNc2nc(-c3ccccc3)cs2)o1 and write its reported inhibition at 0.1 µM.
Given back: 85

Asked: Assign inhibition at 0.1 µM to the following record: CN(C)Cc1ccc(CSCCNc2nc(C=Cc3ccccc3)cs2)o1
Given back: 90

Asked: Input CN(C)Cc1ccc(CSCCNc2nc(-c3ccc4ccccc4c3)cs2)o1 , output reported inhibition at 0.1 µM.
Given back: 95

====

assay.explanation: in vivo
details: mouse, po
reported.endpoint: LD50 at 360 h (mg/kg)
State just the number; it will be interpreted in mg/kg.

Would you please look over these solved cases?
1) CN(C)Cc1ccc(CSCCNc2nc(C=Cc3ccccc3)cs2)o1 [Example No. 4]: 2900
2) CN(C)Cc1ccc(CSCCNc2nc(-c3ccccc3)cs2)o1 [Example No. 3]: 550
3) CN(C)Cc1ccc(CSCCNc2nc(-c3ccc(-c4ccccc4)cc3)cs2)o1 [Example No. 5]: 2300
4) CN(C)Cc1ccc(CSCCNC(=S)NC(=O)c2ccccc2)o1 [Example No. 1]: 750
5) CN(C)Cc1ccc(CSCCNc2nc(-c3ccc4ccccc4c3)cs2)o1 [Example No. 6]: 2100

Turning now to a further record.
Asked: Name the recorded LD50 at 360 h of the item CN(C)Cc1ccc(CSCCNc2nc(-c3ccc(Oc4ccccc4)cc3)cs2)o1 [Example No. 13] in your answer.
Given back: 3000

====

Measured inhibition at 0.1 µM, listed per entry.
target.entity: histamine H2 receptors (Cavia porcellus)
Construct: tests on insulated atrium auricolas of Guinea pig heart; from tissue; host or cells: isolated guinea pig heart atrium
assay.explanation: Antagonistic activity to the histamine H2 receptors "in vitro" on insulated atrium auricolas of Guinea pig heart
details: guinea pig, 0.5 h, compound 1·10^-7 M/L; histamine 5·10^-7 M/L; read-out: Antagonizing activity to histamine H2 receptors
The answer is to be given in %; state only the numeric part.

1) CN(C)Cc1ccc(CSCCNc2nc(-c3ccc(Oc4ccccc4)cc3)cs2)o1: 70
2) CN(C)Cc1ccc(CSCCNc2nc(-c3ccc4ccccc4c3)cs2)o1: 95
3) CN(C)Cc1ccc(CSCCNc2nc(-c3ccc(-c4ccccc4)cc3)cs2)o1: 85
4) CN(C)Cc1ccc(CSCCNC(=S)NC(=O)c2ccccc2)o1: 85
5) CN(C)Cc1ccc(CSCCNc2nc(C=Cc3ccccc3)cs2)o1: 70
6) CN(C)Cc1ccc(CSCCNc2nc(-c3ccccc3)cs2)o1: 70

Now take the following compound into account.
Asked: Recall and state the measured inhibition at 0.1 µM for CN/C(=N/CCSCc1nc[nH]c1C)NC#N [Cimetidine, reference compound] .
Given back: 80

====

# inhibition at 0.1 µM per entry
target.entity: histamine H2 receptors (Cavia porcellus, UniProt P47747)
Construct: tests on insulated atrium auricolas of Guinea pig heart; from tissue; host or cells: isolated guinea pig heart atrium
Sequence (P47747 whole entry): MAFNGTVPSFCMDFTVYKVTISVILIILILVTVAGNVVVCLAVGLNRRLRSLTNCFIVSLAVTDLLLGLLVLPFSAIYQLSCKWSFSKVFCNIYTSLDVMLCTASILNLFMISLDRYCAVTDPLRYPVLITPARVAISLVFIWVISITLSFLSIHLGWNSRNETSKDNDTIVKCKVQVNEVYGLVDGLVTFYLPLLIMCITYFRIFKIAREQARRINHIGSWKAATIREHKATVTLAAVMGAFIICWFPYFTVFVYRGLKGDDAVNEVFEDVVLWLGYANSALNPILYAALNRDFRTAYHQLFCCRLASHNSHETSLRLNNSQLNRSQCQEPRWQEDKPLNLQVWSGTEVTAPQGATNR
assay.explanation: Antagonistic activity to the histamine H2 receptors "in vitro" on insulated atrium auricolas of Guinea pig heart
details: guinea pig, 0.5 h, compound 1·10^-7 M/L; histamine 1·10^-5 M/L; read-out: Antagonizing activity to histamine H2 receptors
Respond with the bare value in %.

1) CN(C)Cc1ccc(CSCCNc2nc(-c3ccc(Oc4ccccc4)cc3)cs2)o1: 40
2) CN(C)Cc1ccc(CSCCNc2nc(-c3ccccc3)cs2)o1: 20
3) CN(C)Cc1ccc(CSCCNc2nc(C=Cc3ccccc3)cs2)o1: 20
4) CN(C)Cc1ccc(CSCCNc2nc(-c3ccc4ccccc4c3)cs2)o1: 35
5) CN(C)Cc1ccc(CSCCNc2nc(-c3ccc(-c4ccccc4)cc3)cs2)o1: 25
6) CN/C(=N/CCSCc1nc[nH]c1C)NC#N [Cimetidine, reference compound]: 0

Asked: GET inhibition at 0.1 µM where system = histamine H2 receptors (Cavia porcellus, UniProt P47747) and item = CN(C)Cc1ccc(CSCCNC(=S)NC(=O)c2ccccc2)o1
Given back: 20

====

System: gastric secretion
assay.explanation: Activity on gastric secretion "in vivo" (volume and total acidity of gastric juice after pylorus tieing, Shay)
Set-up: species or system male Wistar rats
details: Rattus norvegicus, po, 20 mg/kg oral, 12 hours before pilorus tieing; read-out: Total acidity gastric juice secretion, Variation %
Assign labels as follows, please: Condition met for change in vivo at 20 mg/kg below -40%; Condition not met for change in vivo at 20 mg/kg equal to or exceeding -40%.

Consider the worked cases shown below.
1) CNC(=C[N+](=O)[O-])NCCSCc1ccc(CN(C)C)o1 [Ranitidine, reference compound]: Condition not met
2) CN(C)Cc1ccc(CSCCNc2nc(-c3ccccc3)cs2)o1: Condition not met
3) CN(C)Cc1ccc(CSCCNc2nc(-c3ccc4ccccc4c3)cs2)o1: Condition met
4) CN(C)Cc1ccc(CSCCNc2nc(C=Cc3ccccc3)cs2)o1: Condition met

// switching to the query molecule
Asked: A record lists CN(C)Cc1ccc(CSCCNc2nc(-c3ccc(-c4ccccc4)cc3)cs2)o1 . Is its change in vivo at 20 mg/kg below -40%?
Given back: Condition met

====

target.entity: histamine H2 receptors (Cavia porcellus)
Construct: tests on insulated atrium auricolas of Guinea pig heart; from tissue; host or cells: isolated guinea pig heart atrium
assay.explanation: Antagonistic activity to the histamine H2 receptors "in vitro" on insulated atrium auricolas of Guinea pig heart
details: guinea pig, 0.5 h, compound 1·10^-6 M/L; histamine 5·10^-7 M/L; read-out: Antagonizing activity to histamine H2 receptors
Property: inhibition at 1 µM; scope: individual molecules
Please give a number only; it is taken to be in %.

1. CN(C)Cc1ccc(CSCCNc2nc(-c3ccc(Oc4ccccc4)cc3)cs2)o1: 90
2. CN(C)Cc1ccc(CSCCNc2nc(C=Cc3ccccc3)cs2)o1: 100
3. CN(C)Cc1ccc(CSCCNc2nc(-c3ccc4ccccc4c3)cs2)o1: 100
4. CN(C)Cc1ccc(CSCCNc2nc(-c3ccc(-c4ccccc4)cc3)cs2)o1: 90
5. CN/C(=N/CCSCc1nc[nH]c1C)NC#N [Cimetidine, reference compound]: 90
6. CN(C)Cc1ccc(CSCCNC(=S)NC(=O)c2ccccc2)o1: 90

# evaluate next
Asked: Consider the molecule CN(C)Cc1ccc(CSCCNc2nc(-c3ccccc3)cs2)o1 . State its measured inhibition at 1 µM.
Given back: 100

====

target.entity: histamine H2 receptors (Cavia porcellus, UniProt P47747)
Construct: tests on insulated atrium auricolas of Guinea pig heart; from tissue; host or cells: isolated guinea pig heart atrium
assay.explanation: Antagonistic activity to the histamine H2 receptors "in vitro" on insulated atrium auricolas of Guinea pig heart
details: guinea pig, 0.5 h, compound 1·10^-7 M/L; histamine 5·10^-6 M/L; read-out: Antagonizing activity to histamine H2 receptors
Listing of recorded inhibition at 0.1 µM by entry.
Value expressed in %; do not type the unit.

Below are worked cases with known answers.
1. CN(C)Cc1ccc(CSCCNc2nc(-c3ccc4ccccc4c3)cs2)o1 [Example No. 6]: 50
2. CN(C)Cc1ccc(CSCCNc2nc(-c3ccc(Oc4ccccc4)cc3)cs2)o1 [Example No. 13]: 30
3. CN/C(=N/CCSCc1nc[nH]c1C)NC#N [Cimetidine, reference compound]: 22
4. CN(C)Cc1ccc(CSCCNC(=S)NC(=O)c2ccccc2)o1 [Example No. 1]: 35
5. CN(C)Cc1ccc(CSCCNc2nc(-c3ccc(-c4ccccc4)cc3)cs2)o1 [Example No. 5]: 40

Asked: Hello, please tell me recorded inhibition at 0.1 µM for this one: CN(C)Cc1ccc(CSCCNc2nc(C=Cc3ccccc3)cs2)o1 [Example No. 4]
Given back: 35

Asked: Please indicate inhibition at 0.1 µM recorded for CN(C)Cc1ccc(CSCCNc2nc(-c3ccccc3)cs2)o1 [Example No. 3]
Given back: 30
